Test: RP, Waters ACQUITY UPLC BEH C18, 100 × 1 mm, 1.7 µm, 50 °C, 0.3 mL/min, estimated dead time 0.17 min; A: water + 0.1% formic acid + 20 mM ammonium formate; B: methanol + 0.1% formic acid + 20 mM ammonium formate; gradient (min/%B) 0/0 15/100 21/100 22/0 30/0
Settings: stereoisomer not certain
1.0 if LC retention time is below 10 min. 0.0 if not; exact matches included in 0.0.

compound: O=C1NC2C(=CC(O)C(O)C2O)c2cc3c(c(O)c21)OCO3 (stereo not drawn)
qualitative.label: 1.0
//
compound: CCOC(=O)C1=CC(OC(CC)CC)C(NC(C)=O)C(N)C1 (stereo not drawn)
qualitative.label: 0.0
//
compound: COP(=S)(OC)Oc1ccc(S(C)=O)c(C)c1 (stereo not drawn) [Fenthion-sulfoxide]
qualitative.label: 0.0
//
compound: COc1ccc(C2Sc3ccccc3N(CCN(C)C)C(=O)C2OC(C)=O)cc1 (stereo not drawn)
qualitative.label: 0.0
//
compound: NC1CCCCC1
qualitative.label: 1.0
//
compound: c1ccc2n[nH]nc2c1
qualitative.label: 1.0
//
compound: CCC(C)C(=O)OC1CC(C)C=C2C=CC(C)C(CCC3CC(O)CC(=O)O3)C21 (stereo not drawn)
qualitative.label: 0.0
//
compound: CC(=O)c1cc2c(cc1C)C(C)(C)C(C)C2C(C)C (stereo not drawn) [Traseolide]
qualitative.label: 0.0
//
compound: COCC(C)N(C(=O)CS(=O)CC(=O)O)c1c(C)csc1C (stereo not drawn)
qualitative.label: 0.0
//
compound: O=C1CCCCCCCCCCC1
qualitative.label: 0.0
//
compound: CC1=C(C(=O)Nc2ccccc2)SCCO1
qualitative.label: 0.0
//
compound: CC(CCC(=O)O)C1CCC2C3CCC4CC(O)CCC4(C)C3CC(O)C12C (stereo not drawn)
qualitative.label: 0.0
//
compound: OC(Cn1cncn1)(Cn1cncn1)c1ccc(F)cc1F
qualitative.label: 1.0
//
compound: CC(=O)OCC(=O)C12OC(C)(C)OC1CC1C3CC(F)C4=CC(=O)C=CC4(C)C3(F)C(O)CC12C (stereo not drawn) [Fluocinonide]
qualitative.label: 0.0
//
compound: NC(=O)C1(N2CCCCC2)CCN(CCCC(=O)c2ccc(F)cc2)CC1
qualitative.label: 1.0
//
compound: NS(=O)(=O)c1cc2c(cc1Cl)NCNS2(=O)=O [Hydrochlorothiazide]
qualitative.label: 1.0

====

Test: RP, Waters ACQUITY UPLC BEH C18, 100 × 1 mm, 1.7 µm, 50 °C, 0.3 mL/min, estimated dead time 0.17 min; A: water + 0.1% formic acid + 20 mM ammonium formate; B: methanol + 0.1% formic acid + 20 mM ammonium formate; gradient (min/%B) 0/0 15/100 21/100 22/0 30/0
Settings: stereoisomer not certain
Reported LC retention time is given for each of the following molecules.
parameter.measured: LC retention time (min)

molecule: O=C(O)CCC(=O)c1ccc(F)cc1 [4-Fluorobenzoylpropionic acid]
unit.abbrev: min
quantitative.result: 10.5
--
molecule: COc1nc(NC(=O)NS(=O)(=O)c2ccccc2C(F)(F)F)nc(C(F)(F)F)n1 [Tritosulfuron]
unit.abbrev: min
quantitative.result: 13.8
--
molecule: CC(C)(C)C(O)C(Cc1ccc(Cl)cc1Cl)n1cncn1 (stereo not given) [Dichlobutrazol]
unit.abbrev: min
quantitative.result: 15.4
--
molecule: CN1CCN2c3ncccc3Cc3ccccc3C2C1 (stereo not given) [Mirtazapine]
unit.abbrev: min
quantitative.result: 9.7
--
molecule: CN1CCc2cc3c(cc2C(=O)Cc2ccc4c(c2C1)OCO4)OCO3 [Protopin]
unit.abbrev: min
quantitative.result: 9.28
